Listed binders paired with reported pKd
biological target: T1, human GPC3 (human, UniProt P51654 25-563); test: SPR
T1 construct: range 25-563; soluble analyte; also called soluble human GPC3; glypican 3
T1 sequence (P51654 25-563 limits assumed): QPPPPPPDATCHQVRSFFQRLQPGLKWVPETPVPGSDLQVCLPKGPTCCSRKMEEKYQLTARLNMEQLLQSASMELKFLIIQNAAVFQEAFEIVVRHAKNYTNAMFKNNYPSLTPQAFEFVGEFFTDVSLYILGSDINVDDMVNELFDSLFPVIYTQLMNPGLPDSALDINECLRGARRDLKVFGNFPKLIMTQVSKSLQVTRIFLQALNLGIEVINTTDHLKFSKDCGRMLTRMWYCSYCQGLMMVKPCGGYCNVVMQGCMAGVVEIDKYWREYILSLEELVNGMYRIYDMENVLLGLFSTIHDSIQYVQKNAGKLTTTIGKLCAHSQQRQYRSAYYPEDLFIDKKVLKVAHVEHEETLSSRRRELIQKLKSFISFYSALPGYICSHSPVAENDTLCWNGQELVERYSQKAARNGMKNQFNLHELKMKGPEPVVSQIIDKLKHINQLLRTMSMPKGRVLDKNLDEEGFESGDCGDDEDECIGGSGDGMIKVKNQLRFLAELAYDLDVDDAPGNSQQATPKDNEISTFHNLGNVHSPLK
pKd: −log10 of the molar value.

binder	pKd
GCH027-G1dh/none-Hi-Kn010G3/L0000-k0 (antibody, V domains shown, one-arm) VH: QVQLVQSGAEVKKPGASVKVSCKASGYEFTDYEMHWIRQPPGQGLEWIGAIDGKTPDTAYSQKFKGRVTLTADKSTSTAYMELSSLTSEDTAVYYCTRFYSYTYWGQGTLVTVSS VL: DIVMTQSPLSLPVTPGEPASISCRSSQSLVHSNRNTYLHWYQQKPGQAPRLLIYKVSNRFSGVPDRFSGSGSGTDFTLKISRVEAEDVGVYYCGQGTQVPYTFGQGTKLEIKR	8.42
H0610-G1dh/none-Hi-Kn010G3/L0047-k0 (antibody, V domains shown, one-arm) VH: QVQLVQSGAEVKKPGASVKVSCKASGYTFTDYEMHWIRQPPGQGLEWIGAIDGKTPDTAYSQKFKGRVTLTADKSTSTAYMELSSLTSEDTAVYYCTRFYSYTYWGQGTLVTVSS VL: DIVMTQSPLSLPVTPGEPASISCRSSQSLVHWNRNTYLHWYQQKPGQAPRLLIYKVSNRFSGVPDRFSGSGSGTDFTLKISRVEAEDVGVYYCGQGTQVPYTFGQGTKLEIK	8.65
